Tested on: SK-BR-3
Assay: Antiproliferative activity against human SK-BR-3 cells assessed as reduction in cell growth incubated for 72 hrs by SRB assay
Format: functional, cell-based
Settings: SK-BR-3, 72 h
Please use 1.0 for IC50 under 2000 nM and 0.0 for everything else, ties included.

• CO[C@H]1/C=C\C=C(/C)C(=O)NC2=CC(=O)C(NCC3COCCOCCOCCOCCOCCO3)=C(C[C@@H](C)C[C@H](OC)[C@H](O)[C@@H](C)/C=C(\C)[C@@H]1OC(N)=O)C2=O (stereo partly specified) = 1.0
• CO[C@H]1/C=C\C=C(/C)C(=O)NC2=CC(=O)C(NCc3ccccc3F)=C(C[C@@H](C)C[C@H](OC)[C@H](O)[C@@H](C)/C=C(\C)[C@@H]1OC(N)=O)C2=O = 1.0
• CO[C@@H](C=CC=C(C)C(N)=O)[C@@H](OC(N)=O)/C(C)=C/[C@H](C)[C@@H](O)[C@H](C[C@H](C)CC1=C(NCCO)C(=O)C=C(NCCO)C1=O)OC = 0.0
• COCCOCCOCCNC1=C2C[C@@H](C)C[C@H](OC)[C@H](O)[C@@H](C)/C=C(\C)[C@H](OC(N)=O)[C@@H](OC)/C=C\C=C(/C)C(=O)NC(=CC1=O)C2=O = 1.0
• CO[C@H]1/C=C\C=C(/C)C(=O)NC2=CC(=O)C(NC3CCN(C(C)=O)CC3)=C(C[C@@H](C)C[C@H](OC)[C@H](O)[C@@H](C)/C=C(\C)[C@@H]1OC(N)=O)C2=O = 1.0
• CO[C@H]1/C=C\C=C(/C)C(=O)NC2=CC(=O)C(NCCCCCCO)=C(C[C@@H](C)C[C@H](OC)[C@H](O)[C@@H](C)/C=C(\C)[C@@H]1OC(N)=O)C2=O = 0.0
• C#CCCN1CCC(NC2=C3C[C@@H](C)C[C@H](OC)[C@H](O)[C@@H](C)/C=C(\C)[C@H](OC(N)=O)[C@@H](OC)/C=C\C=C(/C)C(=O)NC(=CC2=O)C3=O)CC1 = 0.0
• CO[C@H]1/C=C\C=C(/C)C(=O)NC2=CC(=O)C(NC3CCN(S(C)(=O)=O)CC3)=C(C[C@@H](C)C[C@H](OC)[C@H](O)[C@@H](C)/C=C(\C)[C@@H]1OC(N)=O)C2=O = 0.0
• CO[C@H]1/C=C\C=C(/C)C(=O)NC2=CC(=O)C(NCc3cccc(N4CCOC4=O)c3)=C(C[C@@H](C)C[C@H](OC)[C@H](O)[C@@H](C)/C=C(\C)[C@@H]1OC(N)=O)C2=O = 0.0
• CO[C@@H](C=CC=C(C)C(N)=O)[C@@H](OC(N)=O)/C(C)=C/[C@H](C)[C@@H](O)[C@H](C[C@H](C)CC1=C(NCCOCCO)C(=O)C=C(NCCOCCO)C1=O)OC = 0.0

----------
Test system: SK-BR-3
Experiment: Antiproliferative activity against human SK-BR-3 cells assessed as reduction in cell growth incubated for 72 hrs by SRB assay
Assay type: functional, cell-based
Conditions: SK-BR-3, 72 h
PROPERTY_MEASURED: IC50 (µM)

- CO[C@H]1/C=C\C=C(/C)C(=O)NC2=CC(=O)C(NC3CCN(C(=O)OC(C)(C)C)CC3)=C(C[C@@H](C)C[C@H](OC)[C@H](O)[C@@H](C)/C=C(\C)[C@@H]1OC(N)=O)C2=O: 0.077
- CO[C@H]1/C=C\C=C(/C)C(=O)NC2=CC(=O)C(NCCCN3CCCC3)=C(C[C@@H](C)C[C@H](OC)[C@H](O)[C@@H](C)/C=C(\C)[C@@H]1OC(N)=O)C2=O: 2.06
- CO[C@H]1/C=C\C=C(/C)C(=O)NC2=CC(=O)C(NC3CCN(Cc4ccccc4)CC3)=C(C[C@@H](C)C[C@H](OC)[C@H](O)[C@@H](C)/C=C(\C)[C@@H]1OC(N)=O)C2=O: 1.77

----------
Test system: SK-BR-3
Assay: Antiproliferative activity against human SK-BR-3 cells assessed as reduction in cell growth incubated for 72 hrs by SRB assay
Type: functional, cell-based
Details: SK-BR-3, 72 h
pIC50: −log10 of the molar value.
// label 0 strictly below 6 in pIC50; label 1 otherwise

* CO[C@H]1/C=C\C=C(/C)C(=O)NC2=CC(=O)C(NCc3ccc(CS(N)(=O)=O)cc3)=C(C[C@@H](C)C[C@H](OC)[C@H](O)[C@@H](C)/C=C(\C)[C@@H]1OC(N)=O)C2=O | label 0
* COc1c(O)cc2cc1C[C@@H](C)C[C@H](OC)[C@H](O)[C@@H](C)/C=C(\C)[C@H](OC(N)=O)[C@@H](OC)CC/C=C(\C)C(=O)N2 | label 1
* CO[C@H]1/C=C\C=C(/C)C(=O)NC2=CC(=O)C(NCCCCO)=C(C[C@@H](C)C[C@H](OC)[C@H](O)[C@@H](C)/C=C(\C)[C@@H]1OC(N)=O)C2=O | label 0
* CO[C@H]1/C=C\C=C(/C)C(=O)NC2=CC(=O)C(NC3CCC(O)CC3)=C(C[C@@H](C)C[C@H](OC)[C@H](O)[C@@H](C)/C=C(\C)[C@@H]1OC(N)=O)C2=O (stereo partly specified) | label 0

----------
Experiment: Selectivity index, ratio of IC50 for cytotoxicity against human HDF cells to IC50 for cytotoxicity against human A549 cells
Assay type: toxicity, cell-based
Conditions: HDF cells versus A549 cells, read-out: Ratio IC50
Catalogue of selectivity ratio values
PROPERTY_MEASURED: selectivity ratio

* CCOC(=O)N1CCC(NC2=C3C[C@@H](C)C[C@H](OC)[C@H](O)[C@@H](C)/C=C(\C)[C@H](OC(N)=O)[C@@H](OC)/C=C\C=C(/C)C(=O)NC(=CC2=O)C3=O)CC1 | 4.77
* CO[C@H]1/C=C\C=C(/C)C(=O)NC2=CC(=O)C(NCCO)=C(C[C@@H](C)C[C@H](OC)[C@H](O)[C@@H](C)/C=C(\C)[C@@H]1OC(N)=O)C2=O | 3.78
* CO[C@@H](C=CC=C(C)C(N)=O)[C@@H](OC(N)=O)/C(C)=C/[C@H](C)[C@@H](O)[C@H](C[C@H](C)CC1=C(NCCCCCCO)C(=O)C=C(NCCCCCCO)C1=O)OC | 1.57
* COC1=C2C[C@@H](C)C[C@H](OC)[C@H](O)[C@@H](C)/C=C(\C)[C@H](OC(N)=O)[C@@H](OC)/C=C\C=C(/C)C(=O)NC(=CC1=O)C2=O [GELDANAMYCIN] | 2.15
* CO[C@H]1/C=C\C=C(/C)C(=O)NC2=CC(=O)C(NC3CCN(Cc4ccccc4)CC3)=C(C[C@@H](C)C[C@H](OC)[C@H](O)[C@@H](C)/C=C(\C)[C@@H]1OC(N)=O)C2=O | 2.9
* CO[C@H]1/C=C\C=C(/C)C(=O)NC2=CC(=O)C(NNC3=NCCN3)=C(C[C@@H](C)C[C@H](OC)[C@H](O)[C@@H](C)/C=C(\C)[C@@H]1OC(N)=O)C2=O | 1.45
* CO[C@H]1/C=C\C=C(/C)C(=O)NC2=CC(=O)C(NCc3ccccc3F)=C(C[C@@H](C)C[C@H](OC)[C@H](O)[C@@H](C)/C=C(\C)[C@@H]1OC(N)=O)C2=O | 2.38
* Nc1ccn([C@@H]2O[C@H](CO)[C@@H](O)[C@@H]2O)c(=O)n1 [CYTARABINE] | 7.16
* CO[C@H]1/C=C\C=C(/C)C(=O)NC2=CC(=O)C(NC3CCN(C(C)=O)CC3)=C(C[C@@H](C)C[C@H](OC)[C@H](O)[C@@H](C)/C=C(\C)[C@@H]1OC(N)=O)C2=O | 4.32
* CO[C@H]1/C=C\C=C(/C)C(=O)NC2=CC(=O)C(NC3CCN(C(=O)OC(C)(C)C)CC3)=C(C[C@@H](C)C[C@H](OC)[C@H](O)[C@@H](C)/C=C(\C)[C@@H]1OC(N)=O)C2=O | 33.1
* CO[C@H]1/C=C\C=C(/C)C(=O)NC2=CC(=O)C(NCC3COCCOCCOCCOCCO3)=C(C[C@@H](C)C[C@H](OC)[C@H](O)[C@@H](C)/C=C(\C)[C@@H]1OC(N)=O)C2=O (stereo partly specified) | 2.75

----------
The compounds listed here are annotated with their pIC50.
System: SK-BR-3
Experiment: Antiproliferative activity against human SK-BR-3 cells assessed as reduction in cell growth incubated for 72 hrs by SRB assay
Type: functional, cell-based
Details: SK-BR-3, 72 h
pIC50: −log10 of the molar value.
PROPERTY_MEASURED: pIC50

* CO[C@H]1/C=C\C=C(/C)C(=O)NC2=CC(=O)C(NCCN3CCCC3=O)=C(C[C@@H](C)C[C@H](OC)[C@H](O)[C@@H](C)/C=C(\C)[C@@H]1OC(N)=O)C2=O | 5.69
* COC1=C2C[C@@H](C)C[C@H](OC)[C@H](O)[C@@H](C)/C=C(\C)[C@H](OC(N)=O)[C@@H](OC)/C=C\C=C(/C)C(=O)NC(=CC1=O)C2=O | 6.06
* CO[C@H]1/C=C\C=C(/C)C(=O)NC2=CC(=O)C(NNC3=NCCN3)=C(C[C@@H](C)C[C@H](OC)[C@H](O)[C@@H](C)/C=C(\C)[C@@H]1OC(N)=O)C2=O | 5.68
* CCOC(=O)N1CCC(NC2=C3C[C@@H](C)C[C@H](OC)[C@H](O)[C@@H](C)/C=C(\C)[C@H](OC(N)=O)[C@@H](OC)/C=C\C=C(/C)C(=O)NC(=CC2=O)C3=O)CC1 | 5.80
* CO[C@@H](/C=C/C=C(/C)C(N)=O)[C@@H](OC(N)=O)/C(C)=C/[C@H](C)[C@@H](O)[C@H](C[C@H](C)CC1=C(NCCCCO)C(=O)C=C(NCCCCO)C1=O)OC | 5.38
* CCCCOCCOCCNC1=C2C[C@@H](C)C[C@H](OC)[C@H](O)[C@@H](C)/C=C(\C)[C@H](OC(N)=O)[C@@H](OC)/C=C\C=C(/C)C(=O)NC(=CC1=O)C2=O | 5.99
* CCOC(=O)C1CCC(CNC2=C3C[C@@H](C)C[C@H](OC)[C@H](O)[C@@H](C)/C=C(\C)[C@H](OC(N)=O)[C@@H](OC)/C=C\C=C(/C)C(=O)NC(=CC2=O)C3=O)CC1 (stereo partly drawn) | 6.23
* CO[C@H]1/C=C\C=C(/C)C(=O)NC2=CC(=O)C(NCc3cccc(CS(=O)(=O)N(C(C)C)C(C)C)c3)=C(C[C@@H](C)C[C@H](OC)[C@H](O)[C@@H](C)/C=C(\C)[C@@H]1OC(N)=O)C2=O | 5.61
